- test.protocol: Toxicity in albino mouse assessed as mortality at 5 mg/kg, iv
- Type: organism-based
- Set-up: dose 5 mg/kg, route intravenous
- test.settings: in vivo
assay.endpoint: mortality (%)

molecule="CCCCCCCCCCCCCC(=O)NC(CCCN)C(=O)NC(CCCN)C(=O)NC(CCCN)C(N)=O (stereo unspecified)" assay_endpoint=mortality units_of_measure=% readout_number=0

###

- test.protocol: Toxicity in albino mouse assessed as mortality at 90 mg/kg, iv
- Assay type: organism-based
- Design: dose 90 mg/kg, route intravenous
- test.settings: in vivo
assay.endpoint: mortality (%)

compound="CCCCCCCCCCCCCC(=O)NC(CCCN)C(=O)NC(CCCN)C(=O)NC(CCCN)C(N)=O (stereo unspecified)" readout_number=60

###

- test.protocol: Toxicity in albino mouse assessed as mortality at 30 mg/kg, iv
- Format: organism-based
- Design: dose 30 mg/kg, route intravenous
- test.settings: in vivo
assay.endpoint: mortality

molecule="CCCCCCCCCCCCCC(=O)NC(CCCN)C(=O)NC(CCCN)C(=O)NC(CCCN)C(N)=O (stereo unspecified)" result=0%

###

- test.protocol: Toxicity in iv dosed albino mouse
- Type: organism-based
- test.settings: in vivo
assay.endpoint: NOAEL

molecule="CCCCCCCCCCCCCC(=O)NC(CCCN)C(=O)NC(CCCN)C(=O)NC(CCCN)C(N)=O (stereo unspecified)" assay_endpoint=NOAEL result="30 mg/kg"

###

- System: Pseudomonas aeruginosa
- test.protocol: Antibacterial activity against clinical isolates of Pseudomonas aeruginosa PGI/DML02084 after overnight incubation by microdilution broth assay
- Assay type: functional
Square brackets hold non-standard residues; d marks the D form. Peptide text beside a SMILES is read from it. * marks the point of attachment. Stearoyl = CCCCCCCCCCCCCCCCCC(=O)*; Palmitoyl = CCCCCCCCCCCCCCCC(=O)*; Myristoyl = CCCCCCCCCCCCCC(=O)*; Orn = NCCC[CH](N)C(=O)O
assay.endpoint: MIC (µg/mL)

compound="CCCCCCCCCCCCCCCC(=O)NC(CCCN)C(=O)NC(CCCN)C(=O)NC(CCCN)C(N)=O (stereo unspecified)" assay_system="Pseudomonas aeruginosa" assay_endpoint=MIC readout_number=2.5
compound="CCCCCCCCCCCCCCCCCC(=O)NC(CCCN)C(=O)NC(CCCN)C(=O)NC(CCCN)C(=O)NC(CCCN)C(=O)NC(CCCN)C(N)=O (stereo unspecified) (Stearoyl-[Orn][Orn][Orn][Orn][Orn]-NH2; configuration not given here)" assay_system="Pseudomonas aeruginosa" assay_endpoint=MIC readout_number=2.5
compound="CCCCCCCCCCCCCC(=O)NC(CCCN)C(=O)NC(CCCN)C(=O)NC(CCCN)C(=O)NC(CCCN)C(N)=O (stereo unspecified) (Myristoyl-[Orn][Orn][Orn][Orn]-NH2; configuration not given here)" assay_system="Pseudomonas aeruginosa" assay_endpoint=MIC readout_number=3.1
compound="CCCCCCCCCCCCCCCC(=O)NC(CCCN)C(=O)NC(CCCN)C(=O)NC(CCCN)C(=O)NC(CCCN)C(N)=O (stereo unspecified) (Palmitoyl-[Orn][Orn][Orn][Orn]-NH2; configuration not given here)" assay_system="Pseudomonas aeruginosa" assay_endpoint=MIC readout_number=3
compound="CCCCCCCCCCCCCCCCCC(=O)NC(CCCN)C(=O)NC(CCCN)C(=O)NC(CCCN)C(=O)NC(CCCN)C(N)=O (stereo unspecified) (Stearoyl-[Orn][Orn][Orn][Orn]-NH2; configuration not given here)" assay_system="Pseudomonas aeruginosa" assay_endpoint=MIC readout_number=4.5
compound="CCCCCCCCCCCCCC(=O)NC(CCCN)C(=O)NC(CCCN)C(=O)NC(CCCN)C(N)=O (stereo unspecified)" assay_system="Pseudomonas aeruginosa" assay_endpoint=MIC readout_number=1.5
